The measured values listed here are drawn from patent US10723727B2.

- Tested on: HT-29 cells
- protocol details: In vitro cell assay (MTS cell viability), HT-29 (target non-expressing)
- Assay type: cell-based
- conditions used: Homo sapiens, HT-29, 96 h, free compounds; 96 hours after treatment; read-out: HT29 IC50
pIC50: −log10 of the molar value.
The label depends only on pIC50: TRUE if it is at least 8, FALSE if it is smaller.

>>> group_label("CC[C@H](C)[C@H](NC(=O)[C@@]1(C)CCCN1C)C(=O)N(C)[C@H](C[C@@H](O)c1nc(C(=O)N[C@@H](Cc2ccc(N)cc2)C[C@H](C)C(=O)O)cs1)C(C)C")
"FALSE"
>>> group_label("CCOP(=O)(OCC)[C@@H](C)C[C@H](Cc1ccc(N)cc1)NC(=O)c1csc([C@@H](C[C@H](C(C)C)N(C)C(=O)[C@@H](NC(=O)[C@H]2CCCCN2C)[C@@H](C)CC)OC(C)=O)n1")
"TRUE"
>>> group_label("CC[C@H](C)[C@H](NC(=O)[C@@]1(C)CCCN1C)C(=O)N(C)[C@H](C[C@H](O)c1nc(C(=O)N[C@@H](Cc2ccc(N)cc2)C[C@H](C)C(=O)O)cs1)C(C)C")
"FALSE"
>>> group_label("CC[C@H](C)[C@H](NC(=O)[C@@]1(C)CCCN1C)C(=O)N(C)[C@H](C[C@@H](OC(C)=O)c1nc(C(=O)NCC2(c3ccccc3)CC2)cs1)C(C)C")
"FALSE"
>>> group_label("CCNC(=O)N[C@H](C[C@H](C(C)C)N(C)C(=O)[C@@H](NC(=O)[C@@]1(C)CCCN1C)[C@@H](C)CC)c1nc(C(=O)N[C@@H](Cc2ccc(N)cc2)C[C@H](C)C(=O)O)cs1")
"FALSE"
>>> group_label("CC[C@H](C)[C@H](NC(=O)[C@@]1(C)CCCN1C)C(=O)N(C)[C@H](C[C@@H](OC(C)=O)c1nc(C(=O)NCCn2nnc3ccccc32)cs1)C(C)C")
"TRUE"
>>> group_label("CC[C@H](C)[C@H](NC(=O)[C@H](NC)C(C)C)C(=O)N(C)[C@H](C[C@@H](OC(C)=O)c1nc(C(=O)N[C@@H](Cc2ccccc2)C[C@H](C)C(=O)O)cs1)C(C)C")
"TRUE"
>>> group_label("CCOC(=O)[C@@H](C)C[C@H](Cc1ccccc1)NC(=O)c1csc([C@@H](C[C@H](C(C)C)N(C)C(=O)[C@@H](NC(=O)[C@@]2(C)CCCN2C)[C@@H](C)CC)NC(C)=O)n1")
"FALSE"

###

- measurement target: tubulin/RB3-stathmin-like-domain (RB3-SLD-tdm) complex (Sus scrofa, UniProt P02550+P02554)
- Construct: purchased Cytoskeleton, Inc. T240; host or cells: RB3-SLD was made in house in E. coli
- protocol details: Tubulin Peptide-Binding Site Competition Assay (fluorescence polarization)
- Parameters: species or system Porcine
- conditions used: FP competition with BODIPY-labeled vinca peptide probe; read after five hours at 22° C.; read-out: Tubulin Peptide-Binding Site Competition Assay IC50
readout kind: IC50 (nM)

>>> endpoint_value("CC[C@H](C)[C@H](NC(=O)[C@@]1(C)CCCN1C)C(=O)N(C)[C@H](C[C@@H](OC(C)=O)c1nc(C(=O)NC2CCc3ccccc3C2)cs1)C(C)C (some centres unmarked) [#B57]")
78.8
>>> endpoint_value("CC[C@H](C)[C@H](NC(=O)[C@@]1(C)CCCN1C)C(=O)N(C)[C@H](C[C@@H](OC(C)=O)c1nc(C(=O)NC2(Cc3ccccc3)CC2)cs1)C(C)C [#B55]")
28.4
>>> endpoint_value("CC[C@H](C)[C@H](NC(=O)[C@@]1(C)CCCN1C)C(=O)N(C)[C@H](C[C@@H](OC(C)=O)c1nc(C(=O)NCCn2ccnc2)cs1)C(C)C [#B48]")
110
>>> endpoint_value("CC[C@H](C)[C@H](NC(=O)[C@@]1(C)CCCN1C)C(=O)N(C)[C@H](C[C@@H](OC(C)=O)c1nc(C(=O)N[C@@H](Cc2ccccc2)[C@@H](O)C(=O)OC)cs1)C(C)C [#B51]")
11.7
>>> endpoint_value("CC[C@H](C)[C@H](NC(=O)[C@@]1(C)CCCN1C)C(=O)N(C)[C@H](C[C@@H](OC(C)=O)c1nc(C(=O)NCC2(c3ccccc3)CCN(C)CC2)cs1)C(C)C [#B65]")
33.8

###

- System: HT-29 cells
- protocol details: In vitro cell assay (MTS cell viability), HT-29 (target non-expressing)
- Assay type: cell-based
- conditions used: Homo sapiens, HT-29, 96 h, free compounds; 96 hours after treatment; read-out: HT29 IC50
pIC50: −log10 of the molar value.
readout kind: pIC50

>>> endpoint_value("CC[C@H](C)[C@H](NC(=O)[C@]1(C)CCCCN1C)C(=O)N(C)[C@H](C[C@@H](OC(C)=O)c1nc(C(=O)N[C@@H](Cc2ccc(N)cc2)C[C@H](C)C(=O)O)cs1)C(C)C")
8.63
>>> endpoint_value("CC[C@H](C)[C@H](NC(=O)[C@@]1(C)CCCN1C)C(=O)N(C)[C@H](C[C@@H](NC(C)=O)c1nc(C(=O)N[C@@H](Cc2ccccc2)C[C@H](C)C(=O)OC)cs1)C(C)C")
8.47
>>> endpoint_value("CC[C@H](C)[C@H](NC(=O)[C@@]1(C)CCCN1C)C(=O)N(C)[C@H](C[C@@H](OC(=O)NC)c1nc(C(=O)N[C@@H](Cc2ccc(N)cc2)C[C@H](C)C(=O)O)cs1)C(C)C")
8.74
>>> endpoint_value("CCNC(=O)O[C@H](C[C@H](C(C)C)N(C)C(=O)[C@@H](NC(=O)[C@@]1(C)CCCN1C)[C@@H](C)CC)c1nc(C(=O)N[C@@H](Cc2ccc(N)cc2)C[C@H](C)C(=O)O)cs1")
8.79
>>> endpoint_value("CC[C@H](C)[C@H](NC(=O)[C@@]1(C)CCCN1C)C(=O)N(C)[C@H](C[C@@H](OC(C)=O)c1nc(C(=O)N[C@H](COCc2ccccc2)Cc2ccccc2)cs1)C(C)C")
7.83

###

# IC50 per record follows
- Test system: HT-29 cells
- protocol details: In vitro cell assay (MTS cell viability), HT-29 (target non-expressing)
- Assay type: cell-based
- conditions used: Homo sapiens, HT-29, 96 h, free compounds; 96 hours after treatment; read-out: HT29 IC50
- Description: In Vitro Cell Assay Procedure Target expressing (BT474 (breast cancer), N87 (gastric cancer), HCC1954 (breast cancer), MDA-MB-361-DYT2 (breast cancer)) or non-expressing (HT-29) cells were seeded in 96-well cell culture plates for 24 hours before treatment. […] Cell viability was determined by CellTiter 96® AQueous One Solution Cell Proliferation MTS Assay (Promega, Madison Wis.) 96 hours after treatment. Relative cell viability was determined as percentage of untreated control. […]
readout kind: IC50

>>> endpoint_value("CC[C@H](C)[C@H](NC(=O)C12CCCC(CCC1)N2C)C(=O)N(C)[C@H](C[C@@H](OC(C)=O)c1nc(C(=O)N[C@@H](Cc2ccccc2)C[C@H](C)C(=O)OC)cs1)C(C)C")
"< 0.026 nM"
>>> endpoint_value("CC[C@H](C)[C@H](NC(=O)[C@@]1(C)CCCN1C)C(=O)N(C)[C@H](C[C@@H](OC(C)=O)c1nc(C(=O)NCCc2cscn2)cs1)C(C)C")
"37.4 nM"
>>> endpoint_value("CC[C@H](C)[C@H](NC(=O)C12CCC(CC1)N2C)C(=O)N(C)[C@H](C[C@@H](OC(C)=O)c1nc(C(=O)N[C@@H](Cc2ccccc2)C[C@H](C)C(=O)OC)cs1)C(C)C")
"< 0.022 nM"

###

- measurement target: tubulin/RB3-stathmin-like-domain (RB3-SLD-tdm) complex (Sus scrofa, UniProt P02550+P02554)
- Construct: purchased Cytoskeleton, Inc. T240; host or cells: RB3-SLD was made in house in E. coli
- protocol details: Tubulin Peptide-Binding Site Competition Assay (fluorescence polarization)
- Design: species or system Porcine
- conditions used: FP competition with BODIPY-labeled vinca peptide probe; read after five hours at 22° C.; read-out: Tubulin Peptide-Binding Site Competition Assay IC50
# IC50 per record follows
readout kind: IC50 (nM)

>>> endpoint_value("CC[C@H](C)[C@H](NC(=O)[C@@]1(C)CCCN1C)C(=O)N(C)[C@H](C[C@@H](OC(C)=O)c1nc(C(=O)NCC2OCCc3ccccc32)cs1)C(C)C (stereo partly shown)")
29.9
>>> endpoint_value("CC[C@H](C)[C@H](NC(=O)[C@@]1(C)CCCN1C)C(=O)N(C)[C@H](C[C@@H](OC(C)=O)c1nc(C(=O)NCCc2cnn(C)c2)cs1)C(C)C")
249
>>> endpoint_value("CC[C@H](C)[C@H](NC(=O)[C@@]1(C)CCCN1C)C(=O)N(C)[C@H](C[C@@H](OC(C)=O)c1nc(C(=O)NCC2(c3ccccc3)CC2)cs1)C(C)C")
12.9
>>> endpoint_value("CC[C@H](C)[C@H](NC(=O)[C@@]1(C)CCCN1C)C(=O)N(C)[C@H](C[C@@H](OC(C)=O)c1nc(C(=O)N[C@@H](Cc2ccc(N)cc2)C[C@H](C)C(=O)O)cs1)C(C)C")
2.5
>>> endpoint_value("CC[C@H](C)[C@H](NC(=O)[C@@]1(C)CCCN1)C(=O)N(C)[C@H](C[C@@H](OC(C)=O)c1nc(C(=O)N[C@@H](Cc2ccccc2)C[C@H](C)C(=O)OC)cs1)C(C)C")
119
>>> endpoint_value("CCOC(=O)c1ncoc1[C@H](Cc1ccccc1)NC(=O)c1csc([C@@H](C[C@H](C(C)C)N(C)C(=O)[C@@H](NC(=O)[C@H]2CCCCN2C)[C@@H](C)CC)OC(C)=O)n1")
4.7
